Cited source for all entries: ChEMBL document CHEMBL1909046

study system: Kappa-type opioid receptor (Homo sapiens, UniProt P41145)
Sequence (P41145 whole entry): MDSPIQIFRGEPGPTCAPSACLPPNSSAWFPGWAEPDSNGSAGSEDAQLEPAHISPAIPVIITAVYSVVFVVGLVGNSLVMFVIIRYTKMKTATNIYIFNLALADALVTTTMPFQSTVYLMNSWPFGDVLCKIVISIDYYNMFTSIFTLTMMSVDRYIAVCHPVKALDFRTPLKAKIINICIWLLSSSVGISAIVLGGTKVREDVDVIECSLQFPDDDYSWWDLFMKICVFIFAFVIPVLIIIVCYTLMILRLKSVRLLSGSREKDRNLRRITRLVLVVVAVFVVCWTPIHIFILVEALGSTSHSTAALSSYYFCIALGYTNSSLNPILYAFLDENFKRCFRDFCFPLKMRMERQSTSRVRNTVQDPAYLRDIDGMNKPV
test details: DRUGMATRIX: Opiate kappa (OP2, KOP) radioligand binding (ligand: [3H] Diprenorphine)
Assay type: cell membranes, HEK293, Membrane
experimental context: hek293; Not Active = under 50% inhibition at 10 µM

| compound | IC50 |
| --- | --- |
| CC1CN(c2cc3c(cc2F)c(=O)c(C(=O)O)cn3-c2ccc(F)cc2F)CCN1 (stereo not given) | Not Active |
| CC1(C)S[C@@H]2[C@H](NC(=O)[C@H](N)c3ccc(O)cc3)C(=O)N2[C@H]1C(=O)O | Not Active |
| CC[N+](CC)(CC)CCOc1cccc(OCC[N+](CC)(CC)CC)c1OCC[N+](CC)(CC)CC.[I-].[I-].[I-] [GALLAMINE TRIETHIODIDE] | Not Active |
| CCOC(=O)c1ccc(N)cc1 | Not Active |
| Nc1nc2c(ncn2COC(CO)CO)c(=O)[nH]1 | Not Active |

----------
# reported IC50; entries follow
test details: DRUGMATRIX: Calcium Channel Type L, Benzothiazepine radioligand binding (ligand: [3H] Diltiazem)
Assay type: cell membranes, Rattus norvegicus, Wistar, Brain, Membrane
experimental context: Not Active = under 50% inhibition at 10 µM; read-out: IC50
readout label: IC50

| compound | experimental value |
| --- | --- |
| CNCCC=C1c2ccccc2CCc2ccccc21 | 2800 nM |
| Fc1ccc([C@@H]2CCNC[C@H]2COc2ccc3c(c2)OCO3)cc1 | 373 nM |
| COC(=O)C1=C(C)NC(C)=C(C(=O)OC)C1c1ccccc1[N+](=O)[O-] | 8.67 nM |
| CN(C)CCCC1(c2ccc(F)cc2)OCc2cc(C#N)ccc21 (stereo not given) | 1790 nM |
| COc1ccc([C@@H]2Sc3ccccc3N(CCN(C)C)C(=O)[C@@H]2OC(C)=O)cc1 | 28 nM |

----------
study system: Mitogen-activated protein kinase 14 (Homo sapiens, UniProt Q16539); further: in other assays of this panel Not Active means under 50% inhibition at 10 µM;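 further: inhibition of p38alpha enzyme activity in a biochemical kinase assay, with myelin basic protein serving as substrate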
Sequence (Q16539 whole entry): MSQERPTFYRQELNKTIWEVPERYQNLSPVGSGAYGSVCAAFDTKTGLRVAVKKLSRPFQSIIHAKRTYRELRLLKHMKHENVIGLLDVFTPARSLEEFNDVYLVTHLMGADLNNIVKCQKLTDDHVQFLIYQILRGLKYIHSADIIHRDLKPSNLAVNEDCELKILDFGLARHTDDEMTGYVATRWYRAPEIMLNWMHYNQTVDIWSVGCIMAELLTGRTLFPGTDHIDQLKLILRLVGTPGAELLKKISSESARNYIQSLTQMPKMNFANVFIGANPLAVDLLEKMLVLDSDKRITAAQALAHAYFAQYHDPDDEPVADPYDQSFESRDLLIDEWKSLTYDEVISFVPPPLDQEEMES
Set-up: species or system Escherichia coli

| molecule | IC50 |
| --- | --- |
| CN(C)[C@@H]1C(O)=C(C(N)=O)C(=O)[C@@]2(O)C(O)=C3C(=O)c4c(O)cccc4[C@@](C)(O)[C@H]3[C@H](O)[C@@H]12 | Not Active |
| CCCC[C@@H](CC)COC(=O)c1ccccc1C(=O)OC[C@@H](CC)CCCC [BIS(2-ETHYLHEXYL)PHTHALATE] | Not Active |
| CCC[C@@H]1C[C@@H](C(=O)N[C@@H]([C@H]2O[C@H](SC)[C@H](O)[C@@H](O)[C@H]2O)[C@@H](C)O)N(C)C1 | Not Active |

----------
study system: 5-hydroxytryptamine receptor 4 (Cavia porcellus, UniProt O70528); further: in other assays of this panel Not Active means under 50% inhibition at 10 µM
Sequence (O70528 whole entry): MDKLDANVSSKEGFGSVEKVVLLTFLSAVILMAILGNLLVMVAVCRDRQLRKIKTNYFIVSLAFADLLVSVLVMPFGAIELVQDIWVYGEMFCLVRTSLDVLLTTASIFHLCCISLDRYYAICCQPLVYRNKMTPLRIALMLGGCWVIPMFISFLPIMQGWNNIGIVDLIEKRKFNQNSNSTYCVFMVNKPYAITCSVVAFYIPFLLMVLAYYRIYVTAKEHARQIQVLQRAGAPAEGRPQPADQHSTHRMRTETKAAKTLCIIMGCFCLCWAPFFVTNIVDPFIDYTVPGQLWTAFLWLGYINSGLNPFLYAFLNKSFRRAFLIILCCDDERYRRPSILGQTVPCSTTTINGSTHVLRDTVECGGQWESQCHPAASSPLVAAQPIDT
Type: cell membranes, Dunkin-Hartley, Striatum, Membrane

| compound | study system | IC50 |
| --- | --- | --- |
| CC(=O)OCC(=O)[C@@]1(OC(C)=O)[C@@H](C)C[C@H]2[C@@H]3C[C@H](F)C4=CC(=O)C=C[C@]4(C)[C@@]3(F)[C@@H](O)C[C@@]21C [DIFLORASONE DIACETATE] | 5-hydroxytryptamine receptor 4 (Cavia porcellus, UniProt O70528) | Not Active |
| CC(=O)S[C@@H]1CC2=CC(=O)CC[C@]2(C)[C@H]2CC[C@@]3(C)[C@@H](CC[C@@]34CCC(=O)O4)[C@H]12 | 5-hydroxytryptamine receptor 4 (Cavia porcellus, UniProt O70528) | Not Active |
| C=C(C)[C@@H]1[C@H]2OC(=O)[C@@H]1[C@]1(O)C[C@H]3O[C@]34C(=O)O[C@H]2[C@]14C | 5-hydroxytryptamine receptor 4 (Cavia porcellus, UniProt O70528) | Not Active |

----------
# reported Ki; entries follow
study system: UniProt P08172
Sequence (P08172 whole entry): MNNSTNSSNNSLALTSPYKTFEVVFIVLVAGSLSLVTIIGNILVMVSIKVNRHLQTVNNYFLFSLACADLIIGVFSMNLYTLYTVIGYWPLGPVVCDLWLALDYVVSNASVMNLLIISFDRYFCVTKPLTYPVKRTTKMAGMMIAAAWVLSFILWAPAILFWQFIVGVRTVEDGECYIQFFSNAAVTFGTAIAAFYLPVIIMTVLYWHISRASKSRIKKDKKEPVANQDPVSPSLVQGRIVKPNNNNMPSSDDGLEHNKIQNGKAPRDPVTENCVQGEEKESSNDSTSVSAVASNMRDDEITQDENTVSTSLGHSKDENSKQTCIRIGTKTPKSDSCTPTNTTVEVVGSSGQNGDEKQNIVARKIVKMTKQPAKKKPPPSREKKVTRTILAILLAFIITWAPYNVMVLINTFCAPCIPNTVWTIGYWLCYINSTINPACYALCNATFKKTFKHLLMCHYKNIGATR
Type: cell membranes, CHO-K1, Membrane
experimental context: read-out: Ki

| compound | study system | Ki |
| --- | --- | --- |
| Clc1ccccc1C(c1ccccc1)(c1ccccc1)n1ccnc1 | UniProt P08172 | 5170 nM |
| CCc1ccc(C(=O)C(C)CN2CCCCC2)cc1 (centres undefined) | UniProt P08172 | 831 nM |
| CN(C)CCCN1c2ccccc2CCc2ccc(Cl)cc21 | UniProt P08172 | 86 nM |
| CNCCC=C1c2ccccc2CCc2ccccc21 | UniProt P08172 | 123 nM |

----------
study system: UniProt P25103
Sequence (P25103 whole entry): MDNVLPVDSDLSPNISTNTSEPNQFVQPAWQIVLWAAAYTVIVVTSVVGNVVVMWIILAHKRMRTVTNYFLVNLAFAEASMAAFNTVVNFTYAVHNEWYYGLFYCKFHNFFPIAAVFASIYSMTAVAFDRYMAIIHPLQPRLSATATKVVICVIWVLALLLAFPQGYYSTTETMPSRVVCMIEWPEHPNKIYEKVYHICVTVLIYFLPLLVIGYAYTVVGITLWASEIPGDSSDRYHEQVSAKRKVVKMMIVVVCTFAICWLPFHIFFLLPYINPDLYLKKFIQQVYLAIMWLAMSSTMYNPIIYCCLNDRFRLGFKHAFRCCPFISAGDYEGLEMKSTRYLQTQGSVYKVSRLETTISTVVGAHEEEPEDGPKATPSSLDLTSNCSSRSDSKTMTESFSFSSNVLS
Assay type: cell membranes, CHO, Membrane
experimental context: cho

| compound | study system | IC50 |
| --- | --- | --- |
| C[C@]12Cc3c[nH]nc3C[C@@H]1CC[C@@H]1[C@@H]2CC[C@@]2(C)[C@H]1CC[C@]2(C)O [STANOZOLOL] | UniProt P25103 | Not Active |
| CN1[C@@H]2CC[C@H]1C[C@@H](OC(=O)c1c[nH]c3ccccc13)C2 [TROPISETRON] | UniProt P25103 | Not Active |
| CCc1cccc2c3c([nH]c12)C(CC)(CC(=O)O)OCC3 (stereo not given) [ETODOLAC] | UniProt P25103 | Not Active |
| O=C1c2c(O)ccc(O)c2C(=O)c2c(NCCNCCO)ccc(NCCNCCO)c21 [MITOXANTRONE] | UniProt P25103 | Not Active |
| COc1c(C)c2c(c(O)c1C/C=C(\C)CCC(=O)OCCN1CCOCC1)C(=O)OC2 [MYCOPHENOLATE MOFETIL] | UniProt P25103 | Not Active |
| CCCCOC(=O)c1ccc(N)cc1 [BUTAMBEN] | UniProt P25103 | Not Active |
| Fc1ccc([C@@H]2CCNC[C@H]2COc2ccc3c(c2)OCO3)cc1 [PAROXETINE] | UniProt P25103 | Not Active |
| Nc1nc2c(ncn2COC(CO)CO)c(=O)[nH]1 [GANCICLOVIR] | UniProt P25103 | Not Active |
| Nc1nnc(-c2cccc(Cl)c2Cl)c(N)n1 [LAMOTRIGINE] | UniProt P25103 | Not Active |
| CC(C)(O)c1ccccc1CC[C@@H](SCC1(CC(=O)O)CC1)c1cccc(/C=C/c2ccc3ccc(Cl)cc3n2)c1 [MONTELUKAST] | UniProt P25103 | Not Active |
| Cn1cnc([N+](=O)[O-])c1Sc1ncnc2nc[nH]c12 [AZATHIOPRINE] | UniProt P25103 | Not Active |
| CC[N+](CC)(CC)CCOc1cccc(OCC[N+](CC)(CC)CC)c1OCC[N+](CC)(CC)CC.[I-].[I-].[I-] [GALLAMINE TRIETHIODIDE] | UniProt P25103 | Not Active |
| CC1CN(c2cc3c(cc2F)c(=O)c(C(=O)O)cn3-c2ccc(F)cc2F)CCN1 (stereo not given) [TEMAFLOXACIN] | UniProt P25103 | Not Active |
| CC[C@H]1OC(=O)[C@H](C)[C@@H](O[C@H]2C[C@@](C)(OC)[C@@H](O)[C@H](C)O2)[C@H](C)[C@@H](O[C@@H]2O[C@H](C)C[C@H](N(C)C)[C@H]2O)[C@](C)(O)C[C@@H](C)/C(=N\OCOCCOC)[C@H](C)[C@@H](O)[C@]1(C)O [ROXITHROMYCIN] | UniProt P25103 | Not Active |
| C[C@]12CCC(=O)C=C1CC[C@@H]1[C@@H]2C(=O)C[C@@]2(C)[C@H]1CC[C@]2(O)C(=O)CO [CORTISONE] | UniProt P25103 | Not Active |
| C=CC[C@@H]1/C=C(\C)C[C@H](C)C[C@H](OC)[C@H]2O[C@@](O)(C(=O)C(=O)N3CCCC[C@H]3C(=O)O[C@H](/C(C)=C/[C@@H]3CC[C@@H](O)[C@H](OC)C3)[C@H](C)[C@@H](O)CC1=O)[C@H](C)C[C@@H]2OC [TACROLIMUS ANHYDROUS] | UniProt P25103 | Not Active |
| O=c1cc(-c2ccccc2)oc2c1ccc1ccccc12 [ALPHA-NAPHTHOFLAVONE] | UniProt P25103 | Not Active |
| CC(=O)[C@@]1(O)CC[C@H]2[C@@H]3C[C@H](C)C4=CC(=O)C=C[C@]4(C)[C@@]3(F)[C@@H](O)C[C@@]21C [FLUOROMETHOLONE] | UniProt P25103 | Not Active |
| C[C@](N)(Cc1ccc(O)cc1)C(=O)O [METYROSINE] | UniProt P25103 | Not Active |
| CCCSc1ccc2nc(NC(=O)OC)[nH]c2c1 [ALBENDAZOLE] | UniProt P25103 | Not Active |
| Cc1ccc(C(=O)C(C)CN2CCCCC2)cc1 (stereo not given) [TOLPERISONE] | UniProt P25103 | Not Active |
| Oc1cccc2cccnc12 [OXYQUINOLINE] | UniProt P25103 | Not Active |
| Cc1[nH]cnc1CN1CCc2c(c3ccccc3n2C)C1=O [ALOSETRON] | UniProt P25103 | Not Active |
| CCOC(=O)c1ccc(N)cc1 [BENZOCAINE] | UniProt P25103 | Not Active |
| c1ccc2c(c1)cc1ccc3cccc4ccc2c1c34 | UniProt P25103 | Not Active |
| Oc1c(I)cc(I)c2cccnc12 [IODOQUINOL] | UniProt P25103 | Not Active |
| NC(=O)c1ccccc1O [SALICYLAMIDE] | UniProt P25103 | Not Active |
| CC1(C)[C@@H](O[C@H]2O[C@H](C(=O)O)[C@@H](O)[C@H](O)[C@H]2O[C@@H]2O[C@H](C(=O)O)[C@@H](O)[C@H](O)[C@H]2O)CC[C@]2(C)[C@H]3C(=O)C=C4[C@@H]5C[C@@](C)(C(=O)O)CC[C@]5(C)CC[C@@]4(C)[C@]3(C)CC[C@@H]12 [GLYCYRRHIZIN] | UniProt P25103 | Not Active |
| O=C1OC2(c3ccc(O)cc3Oc3cc(O)ccc32)c2ccccc21 [FLUORESCEIN] | UniProt P25103 | Not Active |
| N#C[C@H](O[C@@H]1O[C@H](CO[C@@H]2O[C@H](CO)[C@@H](O)[C@H](O)[C@H]2O)[C@@H](O)[C@H](O)[C@H]1O)c1ccccc1 [AMYGDALIN] | UniProt P25103 | Not Active |
